# TARGET_ENTITY: Mitogen-activated protein kinase; ERK1/ERK2 (Homo sapiens) (UniProt P27361+P28482)
# Sequence (P27361 whole entry, looked up): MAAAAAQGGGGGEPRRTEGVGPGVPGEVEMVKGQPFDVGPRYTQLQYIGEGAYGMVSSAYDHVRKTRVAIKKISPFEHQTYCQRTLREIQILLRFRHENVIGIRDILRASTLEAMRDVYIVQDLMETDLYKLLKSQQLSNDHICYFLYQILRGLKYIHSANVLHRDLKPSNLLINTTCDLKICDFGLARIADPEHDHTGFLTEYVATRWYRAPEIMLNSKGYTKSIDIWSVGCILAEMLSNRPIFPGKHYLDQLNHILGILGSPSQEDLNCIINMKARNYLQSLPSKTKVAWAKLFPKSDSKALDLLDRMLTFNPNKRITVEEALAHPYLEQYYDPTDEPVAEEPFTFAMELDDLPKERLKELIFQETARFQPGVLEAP
# Sequence (P28482 whole entry, looked up): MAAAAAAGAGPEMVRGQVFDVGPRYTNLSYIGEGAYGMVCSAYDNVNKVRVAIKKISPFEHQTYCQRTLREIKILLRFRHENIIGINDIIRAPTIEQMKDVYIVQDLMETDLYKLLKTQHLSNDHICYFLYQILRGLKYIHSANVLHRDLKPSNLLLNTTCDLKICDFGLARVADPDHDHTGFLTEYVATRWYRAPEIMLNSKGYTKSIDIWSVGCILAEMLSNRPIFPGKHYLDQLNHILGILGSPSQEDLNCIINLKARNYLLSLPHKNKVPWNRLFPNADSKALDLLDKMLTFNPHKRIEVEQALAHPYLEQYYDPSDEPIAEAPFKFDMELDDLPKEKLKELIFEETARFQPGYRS
# PROCEDURE_TEXT: Inhibition of EGF-stimulated p44/42 phosphorylation in human MDA-MB-468-Luc cells at 10^-5 M pre-incubated for 1 hr before EGF stimulation for 15 mins by Western blot analysis relative to control
# Assay type: cell-based
The source made the active and inactive calls. The rule behind the calls is not given here.
VALUE_TYPE: inhibition

{"MOLECULAR_STRING": "CCOC(=O)c1ccc(-c2ccc(N(C)C)nn2)cc1", "TARGET_ENTITY": "Mitogen-activated protein kinase; ERK1/ERK2 (Homo sapiens) (UniProt P27361+P28482)", "MEAS_VALUE": "inactive"}
{"MOLECULAR_STRING": "CCOC(=O)c1ccc(-c2ccc(N(CC)CC)nn2)cc1", "TARGET_ENTITY": "Mitogen-activated protein kinase; ERK1/ERK2 (Homo sapiens) (UniProt P27361+P28482)", "MEAS_VALUE": "70%"}
{"MOLECULAR_STRING": "CCN(CC)c1ccc(-c2ccc(C(C)=O)cc2)nn1", "TARGET_ENTITY": "Mitogen-activated protein kinase; ERK1/ERK2 (Homo sapiens) (UniProt P27361+P28482)", "MEAS_VALUE": "< 50%"}
{"MOLECULAR_STRING": "COC(=O)c1ccc(-c2ccc(N(C)C)nn2)cc1", "TARGET_ENTITY": "Mitogen-activated protein kinase; ERK1/ERK2 (Homo sapiens) (UniProt P27361+P28482)", "MEAS_VALUE": "inactive"}
{"MOLECULAR_STRING": "CCN(CC)c1ccc(-c2ccc(C(=O)OC)cc2)nn1", "TARGET_ENTITY": "Mitogen-activated protein kinase; ERK1/ERK2 (Homo sapiens) (UniProt P27361+P28482)", "MEAS_VALUE": "70%"}

###

# TARGET_ENTITY: RAC-alpha serine/threonine-protein kinase (Homo sapiens) (UniProt P31749)
# Sequence (P31749 whole entry): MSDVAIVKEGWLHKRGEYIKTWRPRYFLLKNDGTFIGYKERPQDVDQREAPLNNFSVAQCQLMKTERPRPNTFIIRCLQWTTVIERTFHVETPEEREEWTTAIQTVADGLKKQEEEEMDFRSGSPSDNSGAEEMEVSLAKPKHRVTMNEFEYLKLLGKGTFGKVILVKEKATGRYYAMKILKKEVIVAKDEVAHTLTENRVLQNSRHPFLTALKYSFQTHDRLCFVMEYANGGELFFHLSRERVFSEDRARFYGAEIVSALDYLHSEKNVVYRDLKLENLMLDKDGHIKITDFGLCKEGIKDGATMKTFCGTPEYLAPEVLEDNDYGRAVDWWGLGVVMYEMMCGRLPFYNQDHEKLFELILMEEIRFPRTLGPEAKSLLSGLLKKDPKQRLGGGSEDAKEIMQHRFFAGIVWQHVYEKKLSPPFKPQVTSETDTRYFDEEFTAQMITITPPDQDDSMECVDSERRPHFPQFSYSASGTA
# PROCEDURE_TEXT: Inhibition of EGF-stimulated Akt phosphorylation in human MDA-MB-468-Luc cells at 10^-5 M pre-incubated for 1 hr before EGF stimulation for 15 mins by Western blot analysis relative to control
# Assay type: cell-based
The source made the active and inactive calls. The calls are words filed in the database; no cut-off is given here.
VALUE_TYPE: inhibition

{"MOLECULAR_STRING": "CCN(CC)c1ccc(-c2ccc(C(=O)OC)cc2)nn1", "MEAS_VALUE": "> 70%"}
{"MOLECULAR_STRING": "CCOC(=O)c1ccc(-c2ccc(N(C)C)nn2)cc1", "MEAS_VALUE": "inactive"}
{"MOLECULAR_STRING": "COC(=O)c1ccc(-c2ccc(N(C)C)nn2)cc1", "MEAS_VALUE": "inactive"}

###

# System: Huh-7
# PROCEDURE_TEXT: Antiproliferative activity against human HuH7 cells at 0.1 to 25 uM after 48 hrs by Hoechst 33342 staining-based assay relative to control
# Type: functional
Recorded Activity values for a group of compounds are listed next.
VALUE_TYPE: Activity

{"MOLECULAR_STRING": "CN1CCN(c2ccc(-c3cccc(C(F)(F)F)c3)nn2)CC1", "VALUE_TYPE": "Activity", "MEAS_VALUE": "75%"}
{"MOLECULAR_STRING": "COc1ccc(Nc2ccc(-c3ccccc3)nn2)cc1", "VALUE_TYPE": "Activity", "MEAS_VALUE": "75%"}
{"MOLECULAR_STRING": "COC(=O)c1cccc(-c2ccc(-n3cccc3)nn2)c1", "VALUE_TYPE": "Activity", "MEAS_VALUE": "75%"}
{"MOLECULAR_STRING": "CCOC(=O)c1ccc(-c2ccc(N(CC)CC)nn2)cc1", "VALUE_TYPE": "Activity", "MEAS_VALUE": "60%"}
{"MOLECULAR_STRING": "Oc1cccc(-c2nc(N3CCOCC3)c3oc4ncccc4c3n2)c1", "VALUE_TYPE": "Activity", "MEAS_VALUE": "40%"}
{"MOLECULAR_STRING": "CCN(CC)c1ccc(-c2ccc(C(C)=O)cc2)nn1", "VALUE_TYPE": "Activity", "MEAS_VALUE": "80%"}
{"MOLECULAR_STRING": "CC[C@H](CO)Nc1nc(NCc2ccccc2)c2ncn(C(C)C)c2n1", "VALUE_TYPE": "Activity", "MEAS_VALUE": "90%"}
{"MOLECULAR_STRING": "CC(=O)c1ccc(-c2ccc(N3CCCC3)nn2)cc1", "VALUE_TYPE": "Activity", "MEAS_VALUE": "75%"}
{"MOLECULAR_STRING": "COc1cccc2c1C(=O)c1c(O)c3c(c(O)c1C2=O)C[C@@](O)(C(=O)CO)C[C@@H]3O[C@H]1C[C@H](N)[C@H](O)[C@H](C)O1", "VALUE_TYPE": "Activity", "MEAS_VALUE": "40%"}
{"MOLECULAR_STRING": "Cc1ccc(-c2ccc(N3CCN(c4ccccc4)CC3)nn2)cc1", "VALUE_TYPE": "Activity", "MEAS_VALUE": "75%"}
{"MOLECULAR_STRING": "CCN(CC)c1ccc(-c2ccc(C(=O)OC)cc2)nn1", "VALUE_TYPE": "Activity", "MEAS_VALUE": "60%"}
{"MOLECULAR_STRING": "CC(=O)O[C@H]1C(=O)[C@@]2(C)[C@H]([C@H](OC(=O)c3ccccc3)[C@]3(O)C[C@H](OC(=O)[C@H](O)[C@@H](NC(=O)c4ccccc4)c4ccccc4)C(C)=C1C3(C)C)[C@]1(OC(C)=O)CO[C@@H]1C[C@@H]2O", "VALUE_TYPE": "Activity", "MEAS_VALUE": "50%"}
{"MOLECULAR_STRING": "FC(F)(F)c1cccc(-c2ccc(N3CCCC3)nn2)c1", "VALUE_TYPE": "Activity", "MEAS_VALUE": "75%"}
{"MOLECULAR_STRING": "COc1ccccc1-c1ccc(N2CCN(C)CC2)nn1", "VALUE_TYPE": "Activity", "MEAS_VALUE": "75%"}

###

# Test system: MDA-MB-231
# PROCEDURE_TEXT: Antiproliferative activity against human MDA-MB-231 cells at 0.1 to 25 uM after 48 hrs by Hoechst 33342 staining-based assay relative to control
# Type: functional
Recorded Activity values for a group of molecules are listed next.

{"MOLECULAR_STRING": "CCN(CC)c1ccc(-c2ccc(C(=O)OC)cc2)nn1", "VALUE_UNIT": "%", "Activity": 60}
{"MOLECULAR_STRING": "COc1cccc2c1C(=O)c1c(O)c3c(c(O)c1C2=O)C[C@@](O)(C(=O)CO)C[C@@H]3O[C@H]1C[C@H](N)[C@H](O)[C@H](C)O1", "VALUE_UNIT": "%", "Activity": 50}
{"MOLECULAR_STRING": "CC[C@H](CO)Nc1nc(NCc2ccccc2)c2ncn(C(C)C)c2n1", "VALUE_UNIT": "%", "Activity": 80}
{"MOLECULAR_STRING": "Oc1cccc(-c2nc(N3CCOCC3)c3oc4ncccc4c3n2)c1", "VALUE_UNIT": "%", "Activity": 40}
{"MOLECULAR_STRING": "CC(=O)O[C@H]1C(=O)[C@@]2(C)[C@H]([C@H](OC(=O)c3ccccc3)[C@]3(O)C[C@H](OC(=O)[C@H](O)[C@@H](NC(=O)c4ccccc4)c4ccccc4)C(C)=C1C3(C)C)[C@]1(OC(C)=O)CO[C@@H]1C[C@@H]2O", "VALUE_UNIT": "%", "Activity": 60}
{"MOLECULAR_STRING": "CCN(CC)c1ccc(-c2ccc(C(C)=O)cc2)nn1", "VALUE_UNIT": "%", "Activity": 60}
{"MOLECULAR_STRING": "CCOC(=O)c1ccc(-c2ccc(N(CC)CC)nn2)cc1", "VALUE_UNIT": "%", "Activity": 70}

###

# System: HaCaT
# PROCEDURE_TEXT: Antiproliferative activity against human HaCaT cells after 48 hrs by Hoechst 33342 staining-based assay
# Assay type: cell-based
pIC50: −log10 of the molar value.
Recorded pIC50 values for a group of compounds are listed next.
VALUE_TYPE: pIC50

{"MOLECULAR_STRING": "CC(=O)O[C@H]1C(=O)[C@@]2(C)[C@H]([C@H](OC(=O)c3ccccc3)[C@]3(O)C[C@H](OC(=O)[C@H](O)[C@@H](NC(=O)c4ccccc4)c4ccccc4)C(C)=C1C3(C)C)[C@]1(OC(C)=O)CO[C@@H]1C[C@@H]2O", "COMPARISON_OPERATOR": "=", "MEAS_VALUE": 8.70}
{"MOLECULAR_STRING": "CCOC(=O)c1ccc(-c2ccc(N(CC)CC)nn2)cc1", "COMPARISON_OPERATOR": "=", "MEAS_VALUE": 6.30}
{"MOLECULAR_STRING": "CCOC(=O)c1ccc(-c2ccc(OC(C)C)nn2)cc1", "COMPARISON_OPERATOR": "<", "MEAS_VALUE": 4.60}
{"MOLECULAR_STRING": "CCN(CC)c1ccc(-c2ccc(C(=O)OC)cc2)nn1", "COMPARISON_OPERATOR": "=", "MEAS_VALUE": 7.10}
